Measured pIC50 of individual entries
Molecular target: HMG-CoA reductase (Rattus norvegicus, UniProt P51639)
Construct: In the assay the microsomes are the source of the HMG-CoA reductase enzyme; from tissue; host or cells: liver microsomes of male Sprague-Dawley rats
Sequence (P51639 1-887): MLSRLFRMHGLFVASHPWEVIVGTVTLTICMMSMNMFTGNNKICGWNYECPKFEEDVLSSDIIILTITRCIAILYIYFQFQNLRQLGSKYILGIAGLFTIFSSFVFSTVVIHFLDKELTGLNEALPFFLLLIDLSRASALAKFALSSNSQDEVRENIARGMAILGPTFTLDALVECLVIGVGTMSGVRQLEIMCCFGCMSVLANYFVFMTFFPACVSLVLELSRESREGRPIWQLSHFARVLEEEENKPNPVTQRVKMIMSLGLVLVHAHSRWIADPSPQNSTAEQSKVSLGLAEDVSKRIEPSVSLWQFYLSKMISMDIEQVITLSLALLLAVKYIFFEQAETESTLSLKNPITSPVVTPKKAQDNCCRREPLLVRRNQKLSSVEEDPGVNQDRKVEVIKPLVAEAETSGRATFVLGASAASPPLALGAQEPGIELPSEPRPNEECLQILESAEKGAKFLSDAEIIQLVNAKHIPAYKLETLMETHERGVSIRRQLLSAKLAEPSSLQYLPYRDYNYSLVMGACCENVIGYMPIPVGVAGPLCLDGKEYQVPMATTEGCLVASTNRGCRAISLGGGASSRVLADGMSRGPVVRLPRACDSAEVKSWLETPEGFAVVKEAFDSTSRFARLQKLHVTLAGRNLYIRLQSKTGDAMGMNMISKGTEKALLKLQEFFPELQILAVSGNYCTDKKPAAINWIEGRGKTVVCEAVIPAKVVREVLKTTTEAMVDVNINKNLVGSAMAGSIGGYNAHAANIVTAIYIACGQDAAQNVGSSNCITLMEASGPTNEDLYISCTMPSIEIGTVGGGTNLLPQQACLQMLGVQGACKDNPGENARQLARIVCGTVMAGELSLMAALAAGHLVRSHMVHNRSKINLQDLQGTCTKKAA
Assay: Test A. In Vitro Microsomal Assay of HMG-CoA Reductase Inhibition
Type: biochemical, rat (male Sprague-Dawley)
Details: rat liver microsomes; [14C]HMG-CoA substrate; test substance in dimethylacetamide; read-out: IC50 in Test A (50% inhibition of HMG-CoA reductase activity)
pIC50: −log10 of the molar value.

| Molecule | pIC50 |
| --- | --- |
| CC[C@H](C)C(=O)O[C@H]1CCC=C2C=C[C@H](C)[C@H](CC[C@@H]3C[C@@H](O)CC(=O)O3)[C@H]21 [Compactin, reference compound] | 6.00 |
| CC(C)c1nc(-c2ccccc2)n(-c2ccc(F)cc2)c1/C=C/[C@@H](O)C[C@@H](O)CC(=O)O [Example 2A] | 8.70 |
| CC(C)c1nc(-c2ccccc2)n(-c2ccc(F)cc2)c1/C=C/[C@@H](O)C[C@@H](O)CC(=O)O (relative stereo) [Example 2] | 8.59 |
| CC(C)c1nc(-c2ccccc2)n(-c2ccccc2)c1/C=C/[C@@H](O)C[C@@H](O)CC(=O)O (relative stereo) | 7.44 |
